testedTarget: BRAF^V600E (Homo sapiens (Human), UniProt P15056, V600E)
Sequence (P15056 whole entry V600E): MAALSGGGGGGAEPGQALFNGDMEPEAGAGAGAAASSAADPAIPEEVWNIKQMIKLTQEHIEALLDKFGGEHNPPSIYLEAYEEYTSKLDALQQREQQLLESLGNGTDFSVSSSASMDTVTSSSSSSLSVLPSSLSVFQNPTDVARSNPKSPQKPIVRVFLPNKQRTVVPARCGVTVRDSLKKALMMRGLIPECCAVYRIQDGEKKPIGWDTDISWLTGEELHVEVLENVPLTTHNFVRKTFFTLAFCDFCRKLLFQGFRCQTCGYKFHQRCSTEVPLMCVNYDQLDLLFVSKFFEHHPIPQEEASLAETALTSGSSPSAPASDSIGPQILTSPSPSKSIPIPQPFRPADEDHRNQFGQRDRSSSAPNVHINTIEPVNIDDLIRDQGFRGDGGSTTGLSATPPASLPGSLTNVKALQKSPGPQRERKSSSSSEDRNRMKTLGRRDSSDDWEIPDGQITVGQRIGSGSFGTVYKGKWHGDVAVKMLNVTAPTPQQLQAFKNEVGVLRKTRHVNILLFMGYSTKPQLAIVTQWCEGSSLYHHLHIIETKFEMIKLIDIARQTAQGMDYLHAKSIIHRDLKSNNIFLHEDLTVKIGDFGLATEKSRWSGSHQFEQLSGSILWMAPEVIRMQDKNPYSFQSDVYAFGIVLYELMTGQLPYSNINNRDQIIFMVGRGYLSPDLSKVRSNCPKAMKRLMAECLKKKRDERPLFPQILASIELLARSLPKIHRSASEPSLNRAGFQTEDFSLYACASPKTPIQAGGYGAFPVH
protocol: BRAF^V600E kinase activity, Z′-LYTE enzymatic assay (SelectScreen, Invitrogen)
testConditions: 100 μM ATP; read-out: BRAF^V600E Inhibition IC50
// pIC50 lookup, one value per entry
In textbook form, pIC50 equals minus log to base ten of the concentration in mol/L.

Check out these entries, answers already filled in.
molecularString: C#Cc1cc(C(=O)Nc2ccc(CNCCN3CCN(C(=O)OC(C)(C)C)CC3)c(C(F)(F)F)c2)ccc1C
numericReadout: 4.96
--
molecularString: C#Cc1cc(C(=O)Nc2ccc(CNCCN3CCN(c4ccccc4)CC3)c(C(F)(F)F)c2)ccc1C
numericReadout: 5.05

Query block: Quick one: pIC50 of COc1cc(N2CCN(CCNCc3ccc(NC(=O)c4ccc(C)c(C#Cc5cnc6cccnn56)c4)cc3C(F)(F)F)CC2)ncn1 ?
Result block: 7.32

Query block: Continue with Cc1ccc(C(=O)Nc2ccc(CNCCN3CCC(=O)CC3)c(C(F)(F)F)c2)cc1C#Cc1cnc2cccnn12
Result block: 7.51

Query block: Continue with Cc1ccc(C(=O)Nc2ccc(CNCCN3CCOCC3)c(C(F)(F)F)c2)cc1C#Cc1cnc2cccnn12
Result block: 7.98

Query block: Continue with Cc1ccc(C(=O)Nc2ccc(CNCCN3CCN(S(C)(=O)=O)CC3)c(C(F)(F)F)c2)cc1C#Cc1cnc2cccnn12
Result block: 7.53

Query block: Continue with Cc1ccc(C(=O)Nc2ccc(CNCCc3ccncn3)c(C(F)(F)F)c2)cc1C#Cc1cnc2cccnn12
Result block: 7.35

====

testedTarget: BRAF^V600E (Homo sapiens (Human), UniProt P15056, V600E)
protocol: BRAF^V600E kinase activity, Z′-LYTE enzymatic assay (SelectScreen, Invitrogen)
testConditions: 100 μM ATP; read-out: BRAF^V600E Inhibition IC50
// log10 IC50 lookup, one value per entry
A value of 2 here means IC50 of 100 in nM, since values are log10.

Check out these entries, answers already filled in.
compound: C#Cc1cc(C(=O)Nc2ccc(CNCCN3CCN(C(=O)OC)CC3)c(C(F)(F)F)c2)ccc1C [Cmp. 8]
testedTarget: BRAF^V600E (Homo sapiens (Human), UniProt P15056, V600E)
log10 IC50: 3.25
//
compound: C#Cc1cc(C(=O)Nc2ccc(CNCCN3CCOCC3)c(C(F)(F)F)c2)ccc1C [Cmp. 10]
testedTarget: BRAF^V600E (Homo sapiens (Human), UniProt P15056, V600E)
log10 IC50: 3.13
//
compound: C#Cc1cc(C(=O)Nc2ccc(CNCCN3CCN(c4ccccn4)CC3)c(C(F)(F)F)c2)ccc1C [Cmp. 14]
testedTarget: BRAF^V600E (Homo sapiens (Human), UniProt P15056, V600E)
log10 IC50: 3.26
//
compound: CCN(C)S(=O)(=O)Nc1ccc(F)c(C(=O)c2c[nH]c3ncc(-c4cnc(C5CC5)nc4)cc23)c1F [PLX7904, reference compound]
testedTarget: BRAF^V600E (Homo sapiens (Human), UniProt P15056, V600E)
log10 IC50: 0.83

Shifting focus to the compound that follows.
Query block: Quick one: log10 IC50 of N#Cc1c(Oc2ccc(F)c(NC(=O)Cc3cccc(C(F)(F)F)c3)c2)ccc2nc(NC(=O)C3CC3)sc12 [TAK-632, reference compound] ?
Result block: 1.56

Reference source for all entries: patent US12440494B2
